Catalogue of molecules with associated Relative luminescence activity, f-CTZ, Imax
# Assay Remarks: Substrate specificity of WNanoKAZ mutants, crude enzyme solution (Example 11)
# Assay type: biochemical
# Run Conditions: Imax
# Method: DTT was added to the crude enzyme solution obtained in EXAMPLE 9 at a final concentration of 1 mM, and then allowed to stand in an ice-water bath over 8 hours or more. After 1 μL of the crude enzyme solution was added to 100 μL of 30 mM Tris-HCl (pH 7.6)-10 mM EDTA (Wako Pure Chemical Industries, Ltd.) containing 1 μg of coelenterazine (manufactured by JNC Corp.), a luminescence reaction was started. […] The maximum intensity of luminescence (Imax) was given as a relative luminescence activity (rlu). […]
Answer with a number only.

WNanoKAZ: chimeric protein: positions 1-82 of native KAZ and 83-169 of nanoKAZ; SEQ ID NO: 6; I90V, P115E, Q124K, Y138I, N166R (protein, chimeric protein: positions 1-82 of native KAZ and 83-169 of nanoKAZ; I90V, P115E, Q124K, Y138I, N166R) FTLADFVGDWQQTAGYNQDQVLEQGGLSSLFQALGVSVTPIQKVVLSGENGLKADIHVIIPYEGLSGFQMGLIEMIFKVVYPVDDHHFKVILHYGTLVIDGVTPNMIDYFGRPYEGIAVFDGKKITVTGTLWNGNKIIDERLINPDGSLLFRVTINGVTGWRLCERILA :: 48
WNanoKAZ-R166N: single amino acid-substituted WNanoKAZ mutant R166N; SEQ ID NO: 16 (protein) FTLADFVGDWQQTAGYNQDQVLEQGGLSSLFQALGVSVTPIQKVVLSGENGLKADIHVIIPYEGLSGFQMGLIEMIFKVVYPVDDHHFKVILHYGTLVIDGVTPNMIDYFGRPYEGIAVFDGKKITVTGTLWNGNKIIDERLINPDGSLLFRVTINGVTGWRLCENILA :: 38

Let us examine a further case.
Request: Tell me the measured Relative luminescence activity, f-CTZ, Imax of WNanoKAZ-V90I: single amino acid-substituted WNanoKAZ mutant, valine 90 back to isoleucine; SEQ ID NO: 8 (protein) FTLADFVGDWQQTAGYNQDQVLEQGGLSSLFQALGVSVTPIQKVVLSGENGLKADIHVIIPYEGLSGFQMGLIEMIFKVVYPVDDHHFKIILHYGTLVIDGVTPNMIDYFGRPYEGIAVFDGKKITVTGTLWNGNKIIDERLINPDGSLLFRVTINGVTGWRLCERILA , please.
Result: 31
